Assay: protein stability index of a GFP-peptide fusion (yeast GPS) (PSI 1-4); higher = more stable; sorted into four equal gates, so the index is relative within each strain
Conditions: doa10∆
Please mark 1 if the recorded protein stability index is equal to or greater than 3, and 0 if it falls below.

Ask: Decide: protein stability index of GPPYTTDEHLIFNSGKM [ISW2] >= 3?
Reply: 1

Ask: Determine whether measured protein stability index meets or exceeds 3 for LKEQSEQLKEQMEDMEE [SMC4]
Reply: 1

Ask: Hi, just wondering whether PFGAKSTKSNKAKNPLT [RPL8B] shows protein stability index of 3 or higher.
Reply: 1

====

Assay: protein stability index of a GFP-peptide fusion (yeast GPS) (PSI 1-4); higher = more stable; sorted into four equal gates, so the index is relative within each strain
Settings: doa10∆
Classify by measured protein stability index: fulfilled if it is equal to or exceeds 2, not fulfilled if it is smaller.

Some solved cases for reference:
> print(dat)
                                 seq  grouplabel
1           DDYILSGESVMDRDSES [SRB4]   fulfilled
2          DEEESNDEKQKAQDVDV [RPN13]   fulfilled
3           ERQMNFLTNELIRLQME [SWI3]   fulfilled
4           NSNGIAMASLYLTGGQQ [SMD1]   fulfilled
5  DTDSKPSSQSQNDTPMF [YLR018C/POM34]   fulfilled

Ask: State whether the measured protein stability index reaches 2, counting equality as reaching it, for IYLLFQSSGKLKEYLDL [YDL116W/NUP84]
Reply: fulfilled

Ask: Hi team, for DIKVLKRQLIKERNQKF [YIL149C/MLP2] , is the recorded protein stability index at or above 2?
Reply: fulfilled

Ask: Hello, I need to know if AKRNLPHTTLVNECIAQ [CDC53] has measured protein stability index not below 2. Thanks!
Reply: fulfilled

====

Assay: protein stability index of a GFP-peptide fusion (yeast GPS) (PSI 1-4); higher = more stable; sorted into four equal gates, so the index is relative within each strain
Conditions: ubr1∆
Use protein stability index to assign classes; range list: low (below 2), mid (2 to below 3), high (3 or more)

> print(dat)
                          seq  grouplabel
1  TFGIRRNEKIAVHVTVR [RPL11A]         mid

Ask: Looking at MDLFMSTLGDCLGIKDE [GAL11] , which class would you pick?
Reply: high

Ask: Any idea which band CINELDNWNAPLIMATC [RPO31] is in?
Reply: high

Ask: Into which category would you place SFLKEGDLLNAEVQSLF [RRP4] ?
Reply: mid

Ask: Returns: class label. Input: KILITYGSSPKLLATST [SRB8]
Reply: low

====

This section presents sequences with their documented protein stability index values.
Assay: protein stability index of a GFP-peptide fusion (yeast GPS) (PSI 1-4); higher = more stable; sorted into four equal gates, so the index is relative within each strain
Settings: ubr1∆
Quick one: just the number, no unit, thanks!

Ask: Quickly give me recorded protein stability index for IGTNDLFQVESAPKISS [SIR4]
Reply: 2.43

Ask: For SYRLLPQINILQPIKGE [RPC40] , write its protein stability index.
Reply: 2.03

Ask: Tell me measured protein stability index for KVSYAVKKPQKSKTSTG [SNM1] please.
Reply: 3.24

Ask: Give reported protein stability index value for YLSGAIPNQEVLQYSDW [YDL116W/NUP84]
Reply: 2

Ask: Answer with the recorded protein stability index of YNPKMIDDRDYVGNKRL [RET1] only.
Reply: 3.49

Ask: Given MTTPQNISSSQQLLPAP [DSN1] , respond with its protein stability index.
Reply: 2.81

Ask: Give reported protein stability index value for YVDTATAKRKSRKRKPK [IRR1]
Reply: 3.12

Ask: Indicate its recorded protein stability index; the sequence in question is RKNRYVILQSDLEEAYA [RPT3]
Reply: 2.11

====

Experiment: protein stability index of a GFP-peptide fusion (yeast GPS) (PSI 1-4); higher = more stable; sorted into four equal gates, so the index is relative within each strain
Settings: doa10∆
Known protein stability index of a selection of sequences

# count of solved cases: 4
> print(dat)
                                  seq  result
1  VNQEFIFEAISLSDELN [YJL039C/NUP192]    2.71
2  NESLIPLINLALIDTEF [YML103C/NUP188]    2.51
3    SNIGNNSINNNNIKNGT [YDL088C/ASM4]    2.72
4            VQSQVDSSSVSEDSAVF [FAS1]    3.11

Next, consider the following sequence.
Ask: Tell me measured protein stability index for TRYNRDYMLSMANIPER [SNU114] please.
Reply: 1.48

====

Recorded protein stability index for the following sequences
Experiment: protein stability index of a GFP-peptide fusion (yeast GPS) (PSI 1-4); higher = more stable; sorted into four equal gates, so the index is relative within each strain
Conditions: ubr1∆
Write no unit; give the number alone.

> print(dat)
                          seq  measurednumber
1  RLKVFEGIPPPYDKKKR [RPL16A]            2.97
2    NYTQNIDNLESYAGIST [SIR2]            3.01

Ask: Note protein stability index for the sequence shown: AMKELAEKKIPLVIRRY [RPO26]
Reply: 1.73

====

Experiment: protein stability index of a GFP-peptide fusion (yeast GPS) (PSI 1-4); higher = more stable; sorted into four equal gates, so the index is relative within each strain
Settings: doa10∆
List of protein stability index values.
Answer with a number only.

Consider the following illustrative entries.
> print(dat)
                          seq  measurednumber
1    QSTPVLLNHGERAELET [RPN1]            3.03
2    PTITLDDVYRPAAESKI [SNF5]            3.13
3  EEARRKHVSGKILGFVY [RPS22A]            2.82
4    GLNWLISLHENKLSGIL [ISW2]            2.05
5   VGDEFKGYVFKISGGND [RPS6A]            3.08

Ask: Supply protein stability index value. Item: GIPPPYDKKKRVVVPQA [RPL16B]
Reply: 1.83

Ask: Look up and report measured protein stability index for this entry: TIFSPEGRLYQVEYALE [PRE9]
Reply: 3.13

Ask: Determine its reported protein stability index: NFNKFFKIWHGEINKIC [PCI8]
Reply: 1.24

Ask: Please report the measured protein stability index for TGANSIYSVEKKISRLP [UBP6]
Reply: 3

Ask: Item TQTSKEQEIENNGLPMK [ITC1] : provide protein stability index
Reply: 2.9

Ask: Give protein stability index for the following sequence: RLIVDPNIADYITAKNN [PRP8]
Reply: 2.15

Ask: # return recorded protein stability index for entry NAGPNSNIPNLLRNLES [YDL088C/ASM4]
Reply: 2.35

Ask: Give the value of protein stability index reported for the following: WRLLFIDKFIMVVQKYK [GRR1]
Reply: 2.07

Ask: Complete the entry with protein stability index for REKALNEEAEARRLKNR [RPL19A]
Reply: 3.21

Ask: Supply reported protein stability index belonging to this sequence: LDEIFSGCDSTKPSLRK [ECM29]
Reply: 2.57

Ask: Report protein stability index for VCQVTKFGLLLQVSAQE [ECM29]
Reply: 2.15

Ask: For KKNNLEFGTYGKYVIAG [RPN14] , write its protein stability index.
Reply: 2.51

Ask: In one line, give reported protein stability index of the entry VEESSEKKQKTESQDVE [DPB4] .
Reply: 2.8

Ask: State its protein stability index for this sequence: LRSTEYSKSFEQFKMVS [POP1]
Reply: 2.21

Ask: State its protein stability index for this sequence: FDTSIKLDIISDPESER [RPN14]
Reply: 2.7

====

Known protein stability index of a selection of sequences
Assay: protein stability index of a GFP-peptide fusion (yeast GPS) (PSI 1-4); higher = more stable; sorted into four equal gates, so the index is relative within each strain
Settings: san1∆

Record excerpt, results attached:
> print(dat)
                          seq  result
1  GIVLEKLGIESKQPNSA [RPS23A]    1.92
2    LDEVDAALDLSHTQNIG [SMC2]    3.02
3    ELGNMTMLITGQRPDRA [SIN4]    2.69
4    VSYMMPSLYRLLNILIT [SRB8]     1.1
5    ELAESTTTKIIDSTDHI [LRP1]    2.86

From here, focus on the item given below.
Ask: Please indicate protein stability index recorded for IKTFYWLEQFLSCVKND [NUT1]
Reply: 1.18
